Value source: ChEMBL document CHEMBL1129189

- Tgt: Retinoic acid receptor RXR-beta (Homo sapiens)
- Sequence (P28702 whole entry): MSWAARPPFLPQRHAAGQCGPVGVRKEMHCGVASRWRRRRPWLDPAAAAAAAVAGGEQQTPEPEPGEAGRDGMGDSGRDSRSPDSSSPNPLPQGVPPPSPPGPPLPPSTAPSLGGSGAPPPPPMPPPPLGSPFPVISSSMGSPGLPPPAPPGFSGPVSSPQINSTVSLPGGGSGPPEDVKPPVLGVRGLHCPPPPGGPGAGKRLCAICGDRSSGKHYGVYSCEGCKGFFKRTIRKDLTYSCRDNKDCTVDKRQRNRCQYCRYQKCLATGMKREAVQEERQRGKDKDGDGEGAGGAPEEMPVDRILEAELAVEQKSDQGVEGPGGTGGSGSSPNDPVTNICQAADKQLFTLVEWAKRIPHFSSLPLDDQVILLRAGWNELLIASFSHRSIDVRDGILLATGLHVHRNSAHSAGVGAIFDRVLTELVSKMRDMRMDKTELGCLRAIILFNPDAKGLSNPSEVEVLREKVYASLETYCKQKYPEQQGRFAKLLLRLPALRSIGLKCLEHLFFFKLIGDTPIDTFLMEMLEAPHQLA
- Assay Remarks: Compound was tested for functional activity in CV-1 cells transfected with an expression vector for retinoid X receptor beta using transactivation assay
Quantity: EC50 (nM)
Only the number, expressed in nM, is required.

Q: Consider the molecule CC(/C=C/C1CC1(C)c1cc2c(cc1C)C(C)(C)CCC2(C)C)=C\C(=O)O (configuration not stated) tested on Retinoic acid receptor RXR-beta (Homo sapiens); state its EC50.
Ans: 100
